Entry source: patent US20170121344A1

System: Dengue-2 (Strain New Guinea C)
Test: Viral yield assay against Dengue-2 in Vero cells
Type: cell-based, Dengue virus
Conditions: Dengue virus; Vero cells, MOI 0.1, harvested 48 hours post infection; read-out: Activity (EC50 class) against Dengue-2 Virus in Vero cells
pEC50: −log10 of the molar value.
Can you tell me pEC50 for the items I'm about to list?

Query: Report value only: pEC50, Dengue-2 (Strain New Guinea C), N#Cc1cc2c(N)c(C(=O)Nc3ccccc3C(F)(F)F)sc2nc1N [Compound 130]
Result: < 4.60

Query: Report value only: pEC50, Dengue-2 (Strain New Guinea C), C=CCc1c(C)nc2sc(C(=O)Nc3ccc(Br)cc3)c(N)c2c1C [Compound 216]
Result: < 4.60

Query: Report value only: pEC50, Dengue-2 (Strain New Guinea C), CC(NC(=O)c1sc2nc3c(cc2c1N)CN(C)CC3)[C@]12C[C@H]3C[C@H](C[C@H](C3)C1)C2 (stereo partly drawn) [Compound 47]
Result: > 5.30

Query: Report value only: pEC50, Dengue-2 (Strain New Guinea C), Nc1c(C(=O)Nc2ccc([N+](=O)[O-])cc2)sc2nc3c(c(-c4ccco4)c12)CCC3 [Compound 212]
Result: < 4.60

Query: Report value only: pEC50, Dengue-2 (Strain New Guinea C), Cc1cc(C)c2c(N)c(C(=O)NCC(=O)O)sc2n1 [Compound 199]
Result: < 4.60

Query: Report value only: pEC50, Dengue-2 (Strain New Guinea C), Cc1cc(C(F)(F)F)nc2sc(C(=O)Nc3ccccc3I)c(N)c12 [Compound 131]
Result: < 4.60

Query: Report value only: pEC50, Dengue-2 (Strain New Guinea C), COc1ccc(C)cc1NC(=O)c1sc2nc(C)cc(C)c2c1N [Compound 259]
Result: < 4.60

Query: Report value only: pEC50, Dengue-2 (Strain New Guinea C), CN1CCc2nc3sc(C(=O)Nc4cc(Cl)ccc4Cl)c(N)c3cc2C1 [Compound 44]
Result: > 5.30

Query: Report value only: pEC50, Dengue-2 (Strain New Guinea C), N#Cc1ccc(NC(=O)c2sc3nc(N)c(C#N)cc3c2N)cc1 [Compound 152]
Result: < 4.60

Query: Report value only: pEC50, Dengue-2 (Strain New Guinea C), CN1CCc2nc3sc(C(=O)Nc4ccc(F)c(Cl)c4)c(N)c3cc2C1 [Compound 110]
Result: 4.60 to 5.30

Query: Report value only: pEC50, Dengue-2 (Strain New Guinea C), CCCc1ccc2c(N)c(C(N)=O)sc2n1 [Compound 71]
Result: 4.60 to 5.30

Query: Report value only: pEC50, Dengue-2 (Strain New Guinea C), CCc1nc2sc(C(=O)Nc3cccc(C(F)(F)F)c3)c(N)c2cc1C [Compound 93]
Result: 4.60 to 5.30

Query: Report value only: pEC50, Dengue-2 (Strain New Guinea C), COCc1cc(C)nc2sc(C(=O)Nc3cccc4ccccc34)c(N)c12 [Compound 74]
Result: 4.60 to 5.30

Query: Report value only: pEC50, Dengue-2 (Strain New Guinea C), Cc1ccccc1NC(=O)c1sc2nc3c(c(-c4cccs4)c2c1N)CN(C)CC3 [Compound 27]
Result: > 5.30

Query: Report value only: pEC50, Dengue-2 (Strain New Guinea C), N#Cc1cc2c(N)c(C(=O)Nc3ccc(S(N)(=O)=O)cc3)sc2nc1N [Compound 136]
Result: < 4.60

Query: Report value only: pEC50, Dengue-2 (Strain New Guinea C), Nc1c(C(=O)N2CCCCC2)sc2nc(-c3cccs3)cc(C(F)(F)F)c12 [Compound 189]
Result: < 4.60

Query: Report value only: pEC50, Dengue-2 (Strain New Guinea C), CN1CCc2nc3sc(C(=O)Nc4ccc(Cl)cc4)c(N)c3c(-c3ccccc3)c2C1 [Compound 64]
Result: > 5.30

Query: Report value only: pEC50, Dengue-2 (Strain New Guinea C), Cc1cc(C)c2c(n1)sc1c(=O)n(-c3cccc(C(F)(F)F)c3)cnc12 [Compound 198]
Result: < 4.60

* * *

Can you tell me EC50 for the items I'm about to list?
Test system: DENV-1
Assay: Viral yield assay against DENV-1 in Vero cells
Type: cell-based
Details: Dengue virus, DENV1, viral yield assay

Query: Provide one value: measured EC50 of CCCCSc1nc2ccc(NC(=O)c3sc4nc(-c5cccc(OC)c5)ccc4c3N)cc2s1
Result: < 5 µM

Query: Provide one value: measured EC50 of COc1ccc(-c2ccc3c(N)c(C(=O)Nc4ccc(Cl)cc4)sc3n2)cc1
Result: < 5 µM

Query: Provide one value: measured EC50 of Nc1c(C(=O)Nc2ccccc2Br)sc2nc(-c3cccs3)ccc12
Result: < 5 µM

Query: Provide one value: measured EC50 of Nc1c(C(=O)Nc2ccc(OC(F)(F)F)cc2)sc2nc3c(cc12)CCCCC3
Result: 5 to 25 µM

Query: Provide one value: measured EC50 of CCC(C)c1ccc(NC(=O)c2sc3nc(-c4cccc(OC)c4)ccc3c2N)cc1 (centres unmarked)
Result: < 5 µM

Query: Provide one value: measured EC50 of COc1ccc(-c2ccc3c(N)c(C(=O)Nc4ccc(Br)c(C(F)(F)F)c4)sc3n2)cc1OC
Result: < 5 µM

Query: Provide one value: measured EC50 of COc1cccc(-c2ccc3c(N)c(C(=O)Nc4ccc(SC)cc4)sc3n2)c1
Result: < 5 µM

Query: Provide one value: measured EC50 of COc1cccc(-c2ccc3c(N)c(C(=O)Nc4cc(Cl)ccc4Cl)sc3n2)c1
Result: < 5 µM

* * *

Tested on: DENV-3
Test: Viral yield assay against DENV-3 in Vero cells
Type: cell-based
Details: Dengue virus, DENV3
PARAMETER_MEASURED: EC50

Query: Provide one value: measured EC50 of CCOC(=O)CCC(=O)Nc1c(C(=O)Nc2cccc(C(F)(F)F)c2)sc2nc(-c3cccs3)ccc12 [Compound 310]
Result: < 5 µM

Query: Provide one value: measured EC50 of O=C(O)CN(CC(=O)O)c1c(C(=O)Nc2cccc(C(F)(F)F)c2)sc2nc(-c3cccs3)ccc12 [Compound 363]
Result: > 25 µM

Query: Provide one value: measured EC50 of NCC(=O)Nc1c(C(=O)Nc2nnc(-c3ccccc3)s2)sc2nc3c(cc12)CCCCC3 [Compound 296]
Result: < 5 µM

Query: Provide one value: measured EC50 of O=C(O)CNc1c(C(=O)Nc2cccc(C(F)(F)F)c2)sc2nc(-c3cccs3)ccc12 [Compound 305]
Result: 5 to 25 µM

Query: Provide one value: measured EC50 of CC(=O)Nc1c(C(=O)Nc2nnc(-c3ccccc3)s2)sc2nc3c(cc12)CCCCC3 [Compound 358]
Result: 5 to 25 µM

Query: Provide one value: measured EC50 of O=C(Nc1c(C(=O)Nc2nnc(-c3ccccc3)s2)sc2nc3c(cc12)CCCCC3)c1ccccn1 [Compound 360]
Result: > 25 µM

Query: Provide one value: measured EC50 of O=C(O)CC(=O)Nc1c(C(=O)Nc2cccc(C(F)(F)F)c2)sc2nc(-c3cccs3)ccc12 [Compound 302]
Result: 5 to 25 µM

Query: Provide one value: measured EC50 of O=C(O)CC(=O)Nc1c(C(=O)Nc2nnc(-c3ccccc3)s2)sc2nc(Cl)ccc12 [Compound 362]
Result: > 25 µM

* * *

Tested on: Dengue-2 (Strain New Guinea C)
Assay: Viral yield assay against Dengue-2 in Vero cells
Assay type: cell-based, Dengue virus
Settings: Dengue virus; Vero cells, MOI 0.1, harvested 48 hours post infection; read-out: Activity (EC50 class) against Dengue-2 Virus in Vero cells
PARAMETER_MEASURED: EC50

Query: Provide one value: measured EC50 of CN1CCc2nc3sc(C(=O)Nc4ccc(N(C)C)cc4)c(N)c3cc2C1 [Compound 20]
Result: < 5 µM

Query: Provide one value: measured EC50 of Nc1c(C(=O)Nc2ccc([N+](=O)[O-])cc2)sc2nc3c(c(-c4ccco4)c12)CCCC3 [Compound 213]
Result: > 25 µM

Query: Provide one value: measured EC50 of Nc1c(C(=O)Nc2ccccc2C(F)(F)F)sc2nc3c(cc12)CCCC3 [Compound 254]
Result: > 25 µM

Query: Provide one value: measured EC50 of Nc1c(C(=O)Nc2ccccc2)sc2nc(-c3ccccc3)cc(-c3ccccc3)c12 [Compound 66]
Result: 5 to 25 µM

Query: Provide one value: measured EC50 of COc1ccc(-c2cc(-c3cccs3)nc3sc(C(N)=O)c(N)c23)cc1 [Compound 238]
Result: > 25 µM

Query: Provide one value: measured EC50 of Cc1cc(NC(=O)c2sc3nc(C)c(C)c(C)c3c2N)no1 [Compound 255]
Result: > 25 µM

Query: Provide one value: measured EC50 of Cc1cc(NC(=O)c2sc3nc4c(cc3c2N)CN(C)CC4)on1 [Compound 264]
Result: > 25 µM

Query: Provide one value: measured EC50 of CC1(C)CC(=O)c2cc3c(N)c(C(=O)Nc4ccc5c(c4)OCO5)sc3nc2C1 [Compound 226]
Result: > 25 µM

Query: Provide one value: measured EC50 of CCc1nnc(NC(=O)c2sc3nc4c(cc3c2N)CN(C)CC4)s1 [Compound 268]
Result: > 25 µM

Query: Provide one value: measured EC50 of CN1CCc2nc3sc(C(=O)Nc4ccc(OC(F)(F)F)cc4)c(N)c3cc2C1 [Compound 30]
Result: < 5 µM

Query: Provide one value: measured EC50 of N#Cc1c(N)nc2sc(C(=O)Nc3ccc(Br)cc3)c(N)c2c1-c1ccco1 [Compound 6]
Result: < 5 µM

Query: Provide one value: measured EC50 of CCN1CCc2nc3sc(C(=O)Nc4ccc(C(F)(F)F)cc4)c(N)c3cc2C1 [Compound 21]
Result: < 5 µM

Query: Provide one value: measured EC50 of Nc1c(C(=O)Nc2cccc(C(F)(F)F)c2)sc2nc(-c3cccs3)ccc12 [Compound 3]
Result: < 5 µM

Query: Provide one value: measured EC50 of CCc1nnc(NC(=O)c2sc3nc4c(cc3c2N)CN(C(C)C)CC4)s1 [Compound 272]
Result: > 25 µM

Query: Provide one value: measured EC50 of Nc1c(C(=O)Nc2ccc([N+](=O)[O-])cc2)sc2nc3c(cc12)CCCC3 [Compound 228]
Result: > 25 µM

Query: Provide one value: measured EC50 of COCc1cc(C)nc2sc(C(=O)NCc3ccco3)c(N)c12 [Compound 209]
Result: > 25 µM

Query: Provide one value: measured EC50 of COCc1cc(C)c2c(N)c(C(N)=O)sc2n1 [Compound 68]
Result: 5 to 25 µM

Query: Provide one value: measured EC50 of CCOc1ccc(-c2c3c(nc4sc(C(=O)Nc5nccs5)c(N)c24)CCCC3)cc1 [Compound 241]
Result: > 25 µM
